Listing of entries alongside the reported enrichment ratio.
B1: PhoQ; a variant is named by its letters at X, in order, P23837 (parent)
chain: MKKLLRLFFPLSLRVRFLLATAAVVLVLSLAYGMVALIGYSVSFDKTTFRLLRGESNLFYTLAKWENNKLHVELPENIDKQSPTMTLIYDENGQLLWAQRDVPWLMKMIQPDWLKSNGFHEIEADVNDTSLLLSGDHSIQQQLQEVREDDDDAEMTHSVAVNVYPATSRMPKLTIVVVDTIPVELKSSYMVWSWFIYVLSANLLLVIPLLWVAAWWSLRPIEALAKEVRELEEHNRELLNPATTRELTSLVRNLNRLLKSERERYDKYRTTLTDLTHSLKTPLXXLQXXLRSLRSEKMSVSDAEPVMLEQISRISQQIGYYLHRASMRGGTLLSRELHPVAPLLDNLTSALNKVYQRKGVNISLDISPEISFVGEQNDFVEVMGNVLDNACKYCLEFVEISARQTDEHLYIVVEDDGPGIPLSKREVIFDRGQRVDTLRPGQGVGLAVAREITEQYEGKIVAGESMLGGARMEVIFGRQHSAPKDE

Variants of: B1
TEST_SUMMARY: enrichment ratio after two sorts for PhoP signalling (ratio (wild type AVST 3.29)); higher = more functional
PARTICULARS: with PhoP (E. coli)
Whole data set: some 140,000 sequences, median “enrichment ratio after two sorts for PhoP signalling” near 0, cut for the highest 2% near 11. Many of the other results were omitted from the sample, so the highest values are more common in it than they were.

Example entries and their recorded answers appear below.
MUTATION_NOTATION: CITI
MEASURED_ENDPOINT: enrichment ratio
DATA_VALUE: ≤ 0.25

MUTATION_NOTATION: AISA
MEASURED_ENDPOINT: enrichment ratio
DATA_VALUE: 10.4

MUTATION_NOTATION: HHVS
MEASURED_ENDPOINT: enrichment ratio
DATA_VALUE: ≤ 0.25

MUTATION_NOTATION: KCDP
MEASURED_ENDPOINT: enrichment ratio
DATA_VALUE: ≤ 0.25

MUTATION_NOTATION: SISR
MEASURED_ENDPOINT: enrichment ratio
DATA_VALUE: 6.33

MUTATION_NOTATION: YEKP
MEASURED_ENDPOINT: enrichment ratio
DATA_VALUE: ≤ 0.25

MUTATION_NOTATION: QEGT
MEASURED_ENDPOINT: enrichment ratio
DATA_VALUE: 24.3

MUTATION_NOTATION: KQMR
MEASURED_ENDPOINT: enrichment ratio
DATA_VALUE: ≤ 0.25

Could you tell me which enrichment ratio is on file for CITA ? 12.4

Could you tell me which enrichment ratio is on file for QGGT ? 8.36

Could you tell me which enrichment ratio is on file for TLEY ? ≤ 0.25

Could you tell me which enrichment ratio is on file for KSLQ ? ≤ 0.25

Could you tell me which enrichment ratio is on file for TEAS ? 16.2

Could you tell me which enrichment ratio is on file for WQAS ? ≤ 0.25

Could you tell me which enrichment ratio is on file for CIFA ? ≤ 0.25

Could you tell me which enrichment ratio is on file for MEAS ? 3.94

Could you tell me which enrichment ratio is on file for IQAA ? ≤ 0.25

Could you tell me which enrichment ratio is on file for AKAN ? ≤ 0.25

Could you tell me which enrichment ratio is on file for CIMV ? 12.9

Could you tell me which enrichment ratio is on file for HTHA ? ≤ 0.25

Could you tell me which enrichment ratio is on file for MEAF ? ≤ 0.25

Could you tell me which enrichment ratio is on file for SQMS ? 17.9

Could you tell me which enrichment ratio is on file for TEAA ? 2.61

Could you tell me which enrichment ratio is on file for VRPW ? ≤ 0.25
